These entries and their values trace back to patent US9856239B1.

Target Or Test System: human URAT1 (Homo sapiens (Human), UniProt Q96S37)
Sequence (Q96S37 whole entry): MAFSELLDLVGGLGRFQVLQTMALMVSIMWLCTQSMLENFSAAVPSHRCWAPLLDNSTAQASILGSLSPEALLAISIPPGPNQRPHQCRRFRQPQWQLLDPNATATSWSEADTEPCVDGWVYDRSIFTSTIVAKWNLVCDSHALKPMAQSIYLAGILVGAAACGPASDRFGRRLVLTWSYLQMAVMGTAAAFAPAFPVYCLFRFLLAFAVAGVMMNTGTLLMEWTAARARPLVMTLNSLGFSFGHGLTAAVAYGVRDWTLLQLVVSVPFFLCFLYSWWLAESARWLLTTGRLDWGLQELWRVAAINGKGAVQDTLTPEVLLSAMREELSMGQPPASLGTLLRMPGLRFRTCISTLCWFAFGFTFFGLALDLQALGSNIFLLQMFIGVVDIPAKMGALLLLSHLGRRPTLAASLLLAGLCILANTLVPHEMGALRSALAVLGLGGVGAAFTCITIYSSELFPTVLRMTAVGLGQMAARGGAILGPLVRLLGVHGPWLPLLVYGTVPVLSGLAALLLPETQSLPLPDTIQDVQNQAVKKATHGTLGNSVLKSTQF
Experiment Summary: Inhibition of 14C-uric acid absorption in URAT1 cell model (HEK-293T cells transfected with human URAT1)
Condition Summary: HEK-293T cells transfected with human URAT1, 14C-uric acid uptake, 5 min, 37 degrees; read-out: URAT1 IC50 Activity level
pIC50: −log10 of the molar value.
Kindly supply the reported pIC50 values for the records listed here.

input: Read off the recorded pIC50 for O=C(O)CC1(CSc2ccncc2-c2ccc(CO)cc2)CC1 [Compound 22]
output: 6.00 to 7.00

input: Read the entry CC(C)(Sc1ccncc1-n1nc(C2CC2)c2ccccc21)C(=O)O [Compound 9] and write its reported pIC50.
output: < 6.00

input: Answer with the recorded pIC50 of [2H]C([2H])([2H])C(Sc1ccncc1-c1ccc(C#N)c2ccccc12)(C(=O)O)C([2H])([2H])[2H] [Compound 40] only.
output: > 7.00

input: Determine from records and report pIC50 for N#Cc1ccc(-c2cnccc2NCC(=O)O)cc1 [Compound 28]
output: < 6.00

input: Give the measured pIC50 for CC(C)(Sc1ccncc1-c1ccc(C2(O)COC2)cc1)C(=O)O [Compound 35]
output: 6.00 to 7.00
